These measurements were taken from patent US20230235012A1.

Reported MFI values follow for various binders
- measurement_target: T1, human CD28, full-length, expressed on transfected Expi293 cells (human, UniProt P10747 19-220)
- T1 construct: whole, on cells
- assay_info: flow cytometry, 100 nM, Expi293 cells with human CD28

| binder | MFI |
| --- | --- |
| variant ICOSL IgV-Fc fusion N52S/N57L/Q100G (Fc fusion) DTQEKEVRAMVGSDVELSCACPEGSRFDLNDVYVYWQTSESKTVVTYHIPQSSSLELVDSRYRNRALMSPAGMLRGDFSLRLFNVTPQDEQKFHCLVLSGSLGFQEVLSVEVTLHVAANFSVGSGGGGSEPKSSDKTHTCPPCPAPEAEGAPSVFLFPPKPKDTLMISRTPEVTCVVVDVSHEDPEVKFNWYVDGVEVHNAKTKPREEQYNSTYRVVSVLTVLHQDWLNGKEYKCKVSNKALPAPIEKTISKAKGQPREPQVYTLPPSREEMTKNQVSLTCLVKGFYPSDIAVEWESNGQPENNYKTTPPVLDSDGSFFLYSKLTVDKSRWQQGNVFSCSVMHEALHNHYTQKSLSLSPG | 71900 MFI |
| variant ICOSL IgV-Fc fusion N52V/N57T/Q100L (Fc fusion) DTQEKEVRAMVGSDVELSCACPEGSRFDLNDVYVYWQTSESKTVVTYHIPQVSSLETVDSRYRNRALMSPAGMLRGDFSLRLFNVTPQDEQKFHCLVLSLSLGFQEVLSVEVTLHVAANFSVGSGGGGSEPKSSDKTHTCPPCPAPEAEGAPSVFLFPPKPKDTLMISRTPEVTCVVVDVSHEDPEVKFNWYVDGVEVHNAKTKPREEQYNSTYRVVSVLTVLHQDWLNGKEYKCKVSNKALPAPIEKTISKAKGQPREPQVYTLPPSREEMTKNQVSLTCLVKGFYPSDIAVEWESNGQPENNYKTTPPVLDSDGSFFLYSKLTVDKSRWQQGNVFSCSVMHEALHNHYTQKSLSLSPG | 6200 MFI |
